- tested.on: monomeric alpha-synuclein, P37840
- test.protocol: SPR, captured mAb
- condition.context: remark: other sources report otherwise
measure: kon (M⁻¹ s⁻¹)
Give the value in M⁻¹ s⁻¹ but do not write M⁻¹ s⁻¹ after it.

Some entries whose results are on file:
>>> measured("ACI-8033-1A12-Ab1 (antibody, V domains shown) VH: QVHLKQSGADLVRPGASVKLSCKASGYSFTDFYINWVKQTPGQGLEWIARIYPGNNNTFYNEKFKGKATLSAEKSSTTAYMQLSSLTSEDSAVYFCVVGYYGAWGQGTTLTVSS VL: DVVMTQTPLSLPVSLGDQASISCRSSQSLVHSNGNTHLHWYLQKPGQSPKLLIYKVSNRFSGVPDRFSGSGSGTDFTLKISRVEAEDLGFYFCSQSTHVPWTFGGGTKLEIK")
"1.02e+06"
>>> measured("ACI-8033-17F5-Ab1 (antibody, V domains shown) VH: EVQLQQSGPELVKPGASVKISCKASGYTFTDYFMNWVKQSHGKSLEWIGDINPNIDVTNYNQKFKGKATLTVDKSSSTAYMELRSLTSEDSAVYYCARGRDYAMDFWGQGTSVTVSS VL: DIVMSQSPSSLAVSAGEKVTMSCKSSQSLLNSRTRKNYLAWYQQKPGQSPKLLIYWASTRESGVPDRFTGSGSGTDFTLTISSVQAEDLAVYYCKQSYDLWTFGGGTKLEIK")
96600
>>> measured("ACI-7088-4303A3-Ab1 (antibody, V domains shown) VH: QVQLQQSGAELVRPGASVTLSCKASGYTFTDYEMHWVKQTPVHGLEWIGVIDPETGGAVQNQKFKGKAILTADNSSSTAYMDLRSLTSEDSAVYNCAMGAALRLAYWGQGTLVTVSS VL: DVLMTQTPLSLPVSLGDQASISCRSSQSIVHSNGNSYLEWYLQKPGQSPKLLIYKVSNRFSGVPDRFSGSGSGTDFTLKINRVEAEDLGVYYCFQGSHVPFTFGSGTKLEIK")
"1.04e+06"
>>> measured("ACI-7079-2606A6-Ab2 (antibody, V domains shown) VH: QVQLQQSGPELVKPGASVKISCKASGFAFSSSWMNWVKQRPGKGLEWVGRIFPGDGDTNYDRKFKDKATLTADKSSSTAYMQLSSLTSEDSAVYFCARWTGGYDWFAYWGQGTLVTVSA VL: DIVLTQSPASLAVSLGQRATISCRASQSVSTSNYNYLHWYQQKPGQPPKLLITYASNLESGVPARFSGSGSGTDFTLNIHPVEEGDTATYYCQHSWEIPLTFGAGTKLELK")
860000

Now take the following binder into account.
Tell us which kon value is on record for ACI-7088-4303A1-Ab1 (antibody, V domains shown) VH: EVQLQQSGAELVRPGASVKLSCTASGFNIKDDYMHWVKQRPEQGLEWIGWIDPENGDSEYASKFQGKATMTADTSSNTAYLQLSSLTSEDTAVYYCKTWGTAQALFPYWGQGTLVTVSA VL: DIVMTQSQKFMSTSVGDRVSITCKASQNVGTSVGWYQQKAGQSPKLLIHSASNRYTGVPDRFTGSGSGTDFTLTINNMQSEDLADYFCQQYRSYPLTFGAGTKLELK
1.7e+06
